Recorded pIC50 by entry
- TGT: PI3-kinase p110-delta/p85-alpha (Homo sapiens)
- Sequence (P27986 whole entry): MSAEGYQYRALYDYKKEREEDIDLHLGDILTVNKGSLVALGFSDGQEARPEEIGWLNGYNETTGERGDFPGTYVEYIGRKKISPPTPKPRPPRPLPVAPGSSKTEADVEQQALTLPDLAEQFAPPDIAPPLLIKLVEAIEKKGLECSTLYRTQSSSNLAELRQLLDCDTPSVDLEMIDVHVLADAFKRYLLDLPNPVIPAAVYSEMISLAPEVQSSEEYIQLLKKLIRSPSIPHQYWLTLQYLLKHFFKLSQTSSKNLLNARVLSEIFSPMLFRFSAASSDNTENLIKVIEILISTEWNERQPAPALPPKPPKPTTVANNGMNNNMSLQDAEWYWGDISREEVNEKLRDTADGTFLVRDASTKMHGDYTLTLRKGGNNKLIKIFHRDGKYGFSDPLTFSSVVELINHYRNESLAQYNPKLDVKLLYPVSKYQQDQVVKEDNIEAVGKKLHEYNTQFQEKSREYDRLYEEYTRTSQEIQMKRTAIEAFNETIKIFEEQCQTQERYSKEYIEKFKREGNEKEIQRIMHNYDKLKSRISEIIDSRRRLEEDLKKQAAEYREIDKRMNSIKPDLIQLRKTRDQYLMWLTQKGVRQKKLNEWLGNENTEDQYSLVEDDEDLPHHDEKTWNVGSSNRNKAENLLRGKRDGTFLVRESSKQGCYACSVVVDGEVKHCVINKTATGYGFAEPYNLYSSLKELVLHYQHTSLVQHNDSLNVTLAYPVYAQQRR
- Sequence (O00329 whole entry): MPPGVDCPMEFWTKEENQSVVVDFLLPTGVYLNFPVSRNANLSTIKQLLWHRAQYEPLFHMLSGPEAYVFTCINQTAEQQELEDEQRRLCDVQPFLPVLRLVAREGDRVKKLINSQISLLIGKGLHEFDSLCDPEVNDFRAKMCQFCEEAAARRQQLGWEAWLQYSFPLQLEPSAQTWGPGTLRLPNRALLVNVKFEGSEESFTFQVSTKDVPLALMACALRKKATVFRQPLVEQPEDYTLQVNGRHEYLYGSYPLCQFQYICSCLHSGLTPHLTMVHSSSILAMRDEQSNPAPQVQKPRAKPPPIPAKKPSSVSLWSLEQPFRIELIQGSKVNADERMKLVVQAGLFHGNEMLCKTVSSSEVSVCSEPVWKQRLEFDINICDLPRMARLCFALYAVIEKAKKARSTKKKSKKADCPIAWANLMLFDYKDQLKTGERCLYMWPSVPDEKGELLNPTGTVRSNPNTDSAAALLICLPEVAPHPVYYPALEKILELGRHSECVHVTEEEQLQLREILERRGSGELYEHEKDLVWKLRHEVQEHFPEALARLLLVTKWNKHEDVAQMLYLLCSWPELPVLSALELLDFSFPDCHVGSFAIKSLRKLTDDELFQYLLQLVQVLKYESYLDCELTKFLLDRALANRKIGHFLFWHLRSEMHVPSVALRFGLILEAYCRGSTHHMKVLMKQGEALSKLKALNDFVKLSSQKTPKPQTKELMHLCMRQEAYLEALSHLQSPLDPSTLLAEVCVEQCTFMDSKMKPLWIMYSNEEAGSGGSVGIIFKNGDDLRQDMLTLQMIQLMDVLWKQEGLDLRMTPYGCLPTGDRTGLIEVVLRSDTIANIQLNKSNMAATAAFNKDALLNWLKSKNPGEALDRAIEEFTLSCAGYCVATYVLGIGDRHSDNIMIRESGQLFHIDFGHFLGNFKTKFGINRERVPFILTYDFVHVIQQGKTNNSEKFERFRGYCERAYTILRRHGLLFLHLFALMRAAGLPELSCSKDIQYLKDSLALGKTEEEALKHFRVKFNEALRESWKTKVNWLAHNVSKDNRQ
- ASSAY_NOTES: Inhibition of P110delta/p85alpha (unknown origin) using L-alpha-phosphatidylinositol as substrate after 40 mins by ATP depletion assay
pIC50: −log10 of the molar value.
ASSAY_READOUT: pIC50

| COMPOUND_SMILES | ASSAY_READOUT | READOUT_NUMBER |
| --- | --- | --- |
| COc1ncc(-c2ccc3ncn([C@H]4CCN(CC5CC5)C4)c(=O)c3c2)cc1NS(=O)(=O)c1ccc(F)cc1 | pIC50 | 7.68 |
| COc1ncc(-c2ccc3ncn([C@H]4CCN(C(=O)C5CC5)C4)c(=O)c3c2)cc1NS(=O)(=O)c1ccc(F)cc1 | pIC50 | 6.97 |

###

Recorded pIC50 by entry
- System: MCF7
- ASSAY_NOTES: Antiproliferative activity against human MCF7 cells harboring PI3CA E545K mutant after 72 hrs by MTT assay
- Assay type: functional, cell-based
- CONDITION_LABEL: MCF7, 72 h
pIC50: −log10 of the molar value.

| COMPOUND_SMILES | pIC50 |
| --- | --- |
| COc1ncc(-c2ccc3ncn(CCN4CCCC4)c(=O)c3c2)cc1NS(=O)(=O)c1ccc(F)cc1 | 5.42 |
| COc1ncc(-c2ccc3ncn([C@@H]4CCN(CC5CC5)C4)c(=O)c3c2)cc1NS(=O)(=O)c1ccc(F)cc1 | 5.69 |
| COc1ncc(-c2ccc3ncn(C4CCN(C(=O)OC(C)(C)C)CC4)c(=O)c3c2)cc1NS(=O)(=O)c1ccc(F)cc1 | 5.36 |
| COc1ncc(-c2ccc3ncn(C4CCN(CC5CC5)CC4)c(=O)c3c2)cc1NS(=O)(=O)c1ccc(F)cc1 | 5.65 |
| COc1ncc(-c2ccc3ncn(CCN4CCOCC4)c(=O)c3c2)cc1NS(=O)(=O)c1ccc(F)cc1 | 5.49 |
| COc1ncc(-c2ccc3ncn(C4CCN(C(C)=O)CC4)c(=O)c3c2)cc1NS(=O)(=O)c1ccc(F)cc1 | 5.58 |
| COc1ncc(-c2ccc3ncn(C4CCNCC4)c(=O)c3c2)cc1NS(=O)(=O)c1ccc(F)cc1 | 5.78 |
| COc1ncc(-c2ccc3ncn([C@@H]4CCN(C(C)=O)C4)c(=O)c3c2)cc1NS(=O)(=O)c1ccc(F)cc1 | 5.61 |
| COc1ncc(-c2ccc3ncn(CCN4CCCCC4)c(=O)c3c2)cc1NS(=O)(=O)c1ccc(F)cc1 | 5.53 |
| COc1ncc(-c2ccc3ncn(-c4ccc(CN5CCN(C)CC5)cc4)c(=O)c3c2)cc1NS(=O)(=O)c1ccc(F)cc1 | 5.34 |
| COc1ncc(-c2ccc3ncn(CCN4CCOCC4)c(=O)c3c2)cc1NS(=O)(=O)c1ccc(C)cc1 | 5.46 |
| COc1ncc(-c2ccc3ncn(Cc4cccnc4)c(=O)c3c2)cc1NS(=O)(=O)c1ccc(F)cc1 | 5.75 |
| COc1ncc(-c2ccc3ncn(-c4ccc(CN5CCOCC5)cc4)c(=O)c3c2)cc1NS(=O)(=O)c1ccc(F)cc1 | 5.46 |
| COc1ncc(-c2ccc3ncn([C@H]4CCN(C(=O)C5CC5)C4)c(=O)c3c2)cc1NS(=O)(=O)c1ccc(F)cc1 | 5.63 |
| COc1ncc(-c2ccc3ncn([C@H]4CCN(C(C)=O)C4)c(=O)c3c2)cc1NS(=O)(=O)c1ccc(F)cc1 | 5.60 |

###

- Test system: HCT-116
- ASSAY_NOTES: Antiproliferative activity against human HCT116 cells harboring PI3CA H1047R mutant after 72 hrs by MTT assay
- Type: functional, cell-based
- CONDITION_LABEL: HCT-116, 72 h
Recorded IC50 by entry
ASSAY_READOUT: IC50 (µM)

| COMPOUND_SMILES | ASSAY_READOUT | VALUE_UNIT | READOUT_NUMBER |
| --- | --- | --- | --- |
| COc1ncc(-c2ccc3ncn(Cc4ccncc4)c(=O)c3c2)cc1NS(=O)(=O)c1ccc(F)cc1 | IC50 | µM | 2.95 |
| COc1ncc(-c2ccc3ncn([C@@H]4CCN(C(C)=O)C4)c(=O)c3c2)cc1NS(=O)(=O)c1ccc(F)cc1 | IC50 | µM | 4.72 |
| COc1ncc(-c2ccc3ncn(Cc4ccccc4)c(=O)c3c2)cc1NS(=O)(=O)c1ccc(F)cc1 | IC50 | µM | 4.74 |
| CCCCn1cnc2ccc(-c3cnc(OC)c(NS(=O)(=O)c4ccc(F)cc4)c3)cc2c1=O | IC50 | µM | 4.06 |
| COc1ncc(-c2ccc3ncn(C4CCN(C(=O)C5CCOCC5)CC4)c(=O)c3c2)cc1NS(=O)(=O)c1ccc(F)cc1 | IC50 | µM | 0.96 |
| COc1ncc(-c2ccc3ncn([C@H]4CCN(C(=O)OC(C)(C)C)C4)c(=O)c3c2)cc1NS(=O)(=O)c1ccc(F)cc1 | IC50 | µM | 0.66 |
